Species on record: Rattus norvegicus
Assay: DrugMatrix - Regimen: Daily Repeat
Assay type: toxicity, organism-based, Sprague-Dawley
Set-up: regimen Daily Repeat, gender Male, age 6-8 weeks
Conditions: in vivo, po, 0 mg/kg, 72 h, tissue Plasma, route oral GAVAGE, dose level Control, time 3 day, vehicle .5 % CMC
Measured Metric: SODIUM (MEQ/L)
Form entry: value (MEQ/L) — number only.

Below are worked cases with known answers.
>  <Compound>
O=[N+]([O-])c1ccccc1 [NITROBENZENE]

>  <Scale Unit>
MEQ/L

>  <SODIUM>
145.67

$$$$
>  <Compound>
C[C@](O)(CS(=O)(=O)c1ccc(F)cc1)C(=O)Nc1ccc(C#N)c(C(F)(F)F)c1 [(R)-BICALUTAMIDE]

>  <Scale Unit>
MEQ/L

>  <SODIUM>
141.02

$$$$
>  <Compound>
CNC(=C[N+](=O)[O-])NCCSCc1ccc(CN(C)C)o1 [RANITIDINE]

>  <Scale Unit>
MEQ/L

>  <SODIUM>
142.22

$$$$
>  <Compound>
Clc1ccc2c(c1)C(N1CCNCC1)=Nc1ccccc1O2 [AMOXAPINE]

>  <Scale Unit>
MEQ/L

>  <SODIUM>
142.85

$$$$

Request: So what does the record say about SODIUM for Cc1onc(-c2ccccc2)c1-c1ccc(S(N)(=O)=O)cc1 [VALDECOXIB] ?
Response: 140.33

Request: Now consider CN1C(=O)COc2c(C(=O)NC3CN4CCC3CC4)cc(Cl)cc21 (stereo not drawn) [AZASETRON] and answer again.
Response: 140.68

Request: Now consider O=C1CCC(N2C(=O)c3ccccc3C2=O)C(=O)N1 (stereo not drawn) [THALIDOMIDE] and answer again.
Response: 148

Request: Now consider CO[C@H]1/C=C/O[C@@]2(C)Oc3c(C)c(O)c4c(c3C2=O)C2=NC3(CCN(CC(C)C)CC3)NC2=C(NC(=O)/C(C)=C\C=C\[C@H](C)[C@H](O)[C@@H](C)[C@@H](O)[C@@H](C)[C@H](OC(C)=O)[C@@H]1C)C4=O [RIFABUTIN] and answer again.
Response: 142.22

* * *

Each entry below lists one item and its recorded SODIUM value.
Organism: Rattus norvegicus
Assay: DrugMatrix - Regimen: Daily Repeat
Format: toxicity, organism-based, Sprague-Dawley
Design: regimen Daily Repeat, gender Male, age 6-8 weeks
Details: in vivo, iv, 0 mg/kg, 72 h, tissue Plasma, dose level Control, time 3 day, vehicle 100 % SALINE
Form entry: value (MEQ/L) — number only.

Below are worked cases with known answers.
>  <Compound>
COc1cccc2c1C(=O)c1c(O)c3c(c(O)c1C2=O)C[C@@](O)(C(=O)CO)C[C@@H]3O[C@H]1C[C@H](N)[C@H](O)[C@H](C)O1 [DOXORUBICIN]

>  <Measured Metric>
SODIUM

>  <Measured Value>
144.57

$$$$
>  <Compound>
CC[C@]1(O)C[C@@H]2CN(CCc3c([nH]c4ccccc34)[C@@](C(=O)OC)(c3cc4c(cc3OC)N(C)[C@H]3[C@@](O)(C(=O)OC)[C@H](OC(C)=O)[C@]5(CC)C=CCN6CC[C@]43[C@@H]65)C2)C1 [VINBLASTINE]

>  <Measured Metric>
SODIUM

>  <Measured Value>
144

$$$$
>  <Compound>
CC(=O)N[C@@H]1[C@H](Oc2c3cc4cc2Oc2ccc(cc2Cl)[C@@H](O[C@@H]2O[C@@H](CO)[C@@H](O)[C@H](O)[C@@H]2NC(C)=O)[C@@H]2NC(=O)[C@H](NC(=O)[C@@H]4NC(=O)[C@H]4NC(=O)[C@@H](Cc5ccc(c(Cl)c5)O3)NC(=O)[C@H](N)c3ccc(O)c(c3)Oc3cc(O)cc4c3)c3ccc(O)c(c3)-c3c(O[C@H]4O[C@H](CO)[C@@H](O)[C@@H](O)[C@@H]4O)cc(O)cc3[C@@H](C(=O)O)NC2=O)O[C@@H](CO)[C@@H](O)[C@@H]1O

>  <Measured Metric>
SODIUM

>  <Measured Value>
143.28

$$$$

Request: So what does the record say about SODIUM for CCc1c2c(nc3ccc(OC(=O)N4CCC(N5CCCCC5)CC4)cc13)-c1cc3c(c(=O)n1C2)COC(=O)[C@]3(O)CC [IRINOTECAN] ?
Response: 143.87

Request: Now consider CCC1=C[C@@H]2CN(C1)Cc1c([nH]c3ccccc13)[C@@](C(=O)OC)(c1cc3c(cc1OC)N(C)[C@H]1[C@@](O)(C(=O)OC)[C@H](OC(C)=O)[C@]4(CC)C=CCN5CC[C@]31[C@@H]54)C2 [VINORELBINE] and answer again.
Response: 144.02

Request: Now consider COc1cccc2c1C(=O)c1c(O)c3c(c(O)c1C2=O)C[C@@](O)(C(=O)CO)C[C@@H]3O[C@H]1C[C@H](N)[C@@H](O)[C@H](C)O1 [EPIRUBICIN] and answer again.
Response: 143.87
